Kd overview
- TEST_SYSTEM: T1, human receptor tyrosine kinase AXL (human, UniProt P30530 26-894)
- T1 construct: also called hAXL; human AXL on NIH3T3-AXL cl.7, Ratl-AXL cl.2, Hs578T, NCI-H292 and CaSki cells
- T1 sequence: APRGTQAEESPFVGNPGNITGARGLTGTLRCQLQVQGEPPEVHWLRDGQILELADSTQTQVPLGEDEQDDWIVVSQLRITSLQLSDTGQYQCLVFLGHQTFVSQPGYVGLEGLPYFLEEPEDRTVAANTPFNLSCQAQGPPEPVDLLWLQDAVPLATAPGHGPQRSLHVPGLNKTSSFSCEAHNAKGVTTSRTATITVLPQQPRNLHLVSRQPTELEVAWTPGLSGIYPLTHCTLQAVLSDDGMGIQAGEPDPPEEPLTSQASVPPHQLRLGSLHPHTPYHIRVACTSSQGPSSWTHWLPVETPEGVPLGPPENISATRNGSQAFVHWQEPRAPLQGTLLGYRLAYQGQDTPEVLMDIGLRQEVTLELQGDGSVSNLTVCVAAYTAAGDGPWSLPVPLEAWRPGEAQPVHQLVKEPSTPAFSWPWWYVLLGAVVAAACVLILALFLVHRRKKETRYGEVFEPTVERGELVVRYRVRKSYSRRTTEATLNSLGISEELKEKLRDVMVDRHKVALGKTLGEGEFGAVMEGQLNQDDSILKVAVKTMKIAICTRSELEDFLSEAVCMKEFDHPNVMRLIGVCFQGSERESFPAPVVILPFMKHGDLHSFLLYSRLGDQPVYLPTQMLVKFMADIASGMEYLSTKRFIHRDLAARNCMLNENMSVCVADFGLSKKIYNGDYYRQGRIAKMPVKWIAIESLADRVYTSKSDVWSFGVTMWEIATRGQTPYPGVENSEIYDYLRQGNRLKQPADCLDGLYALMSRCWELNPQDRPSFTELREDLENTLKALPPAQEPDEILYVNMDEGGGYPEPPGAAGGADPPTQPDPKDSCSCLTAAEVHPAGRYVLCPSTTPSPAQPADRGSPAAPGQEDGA
- PROTOCOL_SUMMARY: FACS Scatchard, apparent KD (KDapp) on NIH3T3 cells overexpressing human AXL
The reply should be a number in nM, with the unit left off.

chimeric anti-AXL antibody ch11B7-IgG1 (antibody, V domains shown, Rat 11B7 variable domains on human IgG1 / human kappa; also called chm11B7; chimeric anti-AXL mAb #11B7) VH: EVQLQESGPGLVKPSQSLSLTCSVTGYSITSNYWGWIRKFPGDKMEWMGYITYSGSTSYNPSLKSRISITRDTSKNQFFLQLNSVTSEDTATYYCAITTFYYWGQGVMVTVSS VL: DIQMTQAPSSLPASLGDRVTITCRASQDIGNYLRWFQQKPGKSPRLMISGATNLAAGVPSRFSGSRSGSDYSLTISSLESEDMADYYCLQSKESPWTFGGGTKLELKR :: 0.6

For record rat anti-human AXL monoclonal antibody #11B7 (antibody, rat IgG1, V domains shown, also called I11B7; rat anti-Axl antibody 11B7) VH: EVQLQESGPGLVKPSQSLSLTCSVTGYSITSNYWGWIRKFPGDKMEWMGYITYSGSTSYNPSLKSRISITRDTSKNQFFLQLNSVTSEDTATYYCAITTFYYWGQGVMVTVSS VL: DIQMTQAPSSLPASLGDRVTITCRASQDIGNYLRWFQQKPGKSPRLMISGATNLAAGVPSRFSGSRSGSDYSLTISSLESEDMADYYCLQSKESPWTFGGGTKLELKR the listed Kd is 0.38

For record chimeric anti-AXL antibody ch11D5-IgG1 (antibody, V domains shown, also called chm11D5; human chimeric antibody (of #11D5)) VH: EVQLQESGPGLVKPSQSLSLTCSVTGYSITSNYWGWIRKFPGNKMEWIGHITNSGNTTYNPSLKSRISISRDTSRNQFFLQLNSVTTEDTATYYCAKGAFDYWGQGVMVTVSS VL: DIQMTQSPSSMSTSLGDRVTITCRASQDIGNYLSWFQQKVGKSPRRMIYGAIKLAVGVPSRFSGSRSGSDYSLTISSLESEDMAIYYCLQYIQFPLTFGSGTKLELKR the listed Kd is 0.4

For record rat anti-human AXL monoclonal antibody #11D5 (antibody, rat IgG2a, V domains shown, also called III11D5) VH: EVQLQESGPGLVKPSQSLSLTCSVTGYSITSNYWGWIRKFPGNKMEWIGHITNSGNTTYNPSLKSRISISRDTSRNQFFLQLNSVTTEDTATYYCAKGAFDYWGQGVMVTVSS VL: DIQMTQSPSSMSTSLGDRVTITCRASQDIGNYLSWFQQKVGKSPRRMIYGAIKLAVGVPSRFSGSRSGSDYSLTISSLESEDMAIYYCLQYIQFPLTFGSGTKLELKR the listed Kd is 0.81
